# target-desc: Histone-lysine N-methyltransferase SMYD3 (Homo sapiens)
# assay-protocol: Inhibition of full length recombinant SMYD3 (unknown origin) at 50 uM measured for 1 hr by LC-ESI-MS analysis relative to control
Each record here notes measured inhibition.
Write down the numeric answer in % and omit the unit.

Known results for compounds:
O=C(NC1CCN(C(=O)CCl)CC1)c1cc(C2CC2)on1    92.1
O=C1Cc2cc(C(=O)N[C@H]3C[C@H]4CC[C@@H](C3)C4S(=O)(=O)CC3CCN(CCCC(F)(F)F)CC3)c(Cl)cc2N1 (stereo partly specified)    100
O=C(CCl)NC1CCN(C(=O)c2cc(C3CC3)on2)CC1    14

The measured inhibition associated with "O=C(NC1CCNCC1)c1cc(C2CC2)on1" reads 29.1

The measured inhibition associated with "NC1CCN(C(=O)c2cc(C3CC3)on2)CC1" reads 5

====

# assay-protocol: Stability in human plasma measured at 6 hrs by LC-MS analysis
# Type: ADME, cell-free
measurement-type: remaining at 6 h (%)
Write down the numeric answer in % and omit the unit.

The measured remaining at 6 h associated with "O=C(NC1CCN(C(=O)CCl)CC1)c1cc(C2CC2)on1" reads 76

====

# target-desc: Histone-lysine N-methyltransferase SMYD3 (Homo sapiens, UniProt Q9H7B4)
# Sequence (Q9H7B4 whole entry): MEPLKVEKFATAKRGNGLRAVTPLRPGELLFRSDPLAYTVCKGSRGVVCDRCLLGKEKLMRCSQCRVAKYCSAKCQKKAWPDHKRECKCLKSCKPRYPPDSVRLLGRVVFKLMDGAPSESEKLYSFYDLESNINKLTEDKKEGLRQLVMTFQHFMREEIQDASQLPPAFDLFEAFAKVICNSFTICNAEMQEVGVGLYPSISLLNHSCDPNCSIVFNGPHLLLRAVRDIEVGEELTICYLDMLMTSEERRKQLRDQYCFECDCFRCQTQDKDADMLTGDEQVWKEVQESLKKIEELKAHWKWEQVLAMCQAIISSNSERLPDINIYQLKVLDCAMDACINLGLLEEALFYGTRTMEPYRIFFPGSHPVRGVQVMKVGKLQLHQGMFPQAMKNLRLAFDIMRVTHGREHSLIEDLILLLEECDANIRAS
# assay-protocol: Binding affinity to full length recombinant SMYD3 (unknown origin) overexpressed in Escherichia coli Rosetta cells assessed as inhibition constant measured after 1 hr by LC-MS analysis
measurement-type: pKi
Scale note: pKi = -log10(concentration in M).

The measured pKi associated with "O=C(NC1CCN(C(=O)CCl)CC1)c1cc(C2CC2)on1" reads 5.21
